Overview of reported percentage damage caused to the plant, five-point scale, AMARE across a group of compounds:
system: Amaranthus retoflexus (AMARE); experiment: Pre-emergence Test, glasshouse, AMARE; assay type: in vivo; conditions: 250 g/ha, evaluated after 13 days

Example results:
1) COc1cc(Oc2cccc3nnn(CCCC(F)(F)F)c23)ncn1
1 (1=0-20%)
2) FC(F)(F)CCn1nc(Cl)c2cccc(Oc3ncc(Cl)cn3)c21
4 (4=61-80%)
3) CC(C)=CCn1nc(Cl)c2cccc(Oc3ncc(Cl)cn3)c21
3 (3=41-60%)
4) FC(F)(F)CCCn1nc(Cl)c2c(Cl)cc(Cl)c(Oc3ncc(Cl)cn3)c21
4 (4=61-80%)

# percentage damage caused to the plant, five-point scale, AMARE lookup, item N#Cc1ccc2c(Cl)nn(CCCC(F)(F)F)c2c1Oc1ncc(Cl)cn1 1 (1=0-20%)
